target: the molecule itself; test: SEC-MALLS; Superdex 200 10/300 GL, buffer A (25 mM Tris-HCl pH 7.5, 500 mM NaCl); 25 µM protein without urea, 50–75 µM with urea up to 1 M
Readout type: stoichiometry N
Field format: numeric only.

Just so you know, measured stoichiometry N for wild-type Sis1 (natural protein, yeast, UniProt P25294 1-352, looked up, Sis1, yeast cytosolic Type II DnaJ/Hsp40, full length wild type (residues to 352 by the SYS formula); no tag is stated; also called native Sis1; full length wild-type Sis1; source: E. coli BL21(DE3), purified by two chromatography steps) MVKETKLYDLLGVSPSANEQELKKGYRKAALKYHPDKPTGDTEKFKEISEAFEILNDPQKREIYDQYGLEAARSGGPSFGPGGPGGAGGAGGFPGGAGGFSGGHAFSNEDAFNIFSQFFGGSSPFGGADDSGFSFSSYPSGGGAGMGGMPGGMGGMHGGMGGMPGGFRSASSSPTYPEEETVQVNLPVSLEDLFVGKKKSFKIGRKGPHGASEKTQIDIQLKPGWKAGTKITYKNQGDYNPQTGRRKTLQFVIQEKSHPNFKRDGDDLIYTLPLSFKESLLGFSKTIQTIDGRTLPLSRVQPVQPSQTSTYPGQGMPTPKNPSQRGNLIVKYKVDYPISLNDAQKRAIDENF came out at 2
